Target: USP1 (construct USP1 (I-785, GG670, 671AA)/UAF1 (I-677)-Flag) (Homo sapiens (Human), UniProt O94782, G670A/G671A)
Sequence (O94782 whole entry G670A/G671A): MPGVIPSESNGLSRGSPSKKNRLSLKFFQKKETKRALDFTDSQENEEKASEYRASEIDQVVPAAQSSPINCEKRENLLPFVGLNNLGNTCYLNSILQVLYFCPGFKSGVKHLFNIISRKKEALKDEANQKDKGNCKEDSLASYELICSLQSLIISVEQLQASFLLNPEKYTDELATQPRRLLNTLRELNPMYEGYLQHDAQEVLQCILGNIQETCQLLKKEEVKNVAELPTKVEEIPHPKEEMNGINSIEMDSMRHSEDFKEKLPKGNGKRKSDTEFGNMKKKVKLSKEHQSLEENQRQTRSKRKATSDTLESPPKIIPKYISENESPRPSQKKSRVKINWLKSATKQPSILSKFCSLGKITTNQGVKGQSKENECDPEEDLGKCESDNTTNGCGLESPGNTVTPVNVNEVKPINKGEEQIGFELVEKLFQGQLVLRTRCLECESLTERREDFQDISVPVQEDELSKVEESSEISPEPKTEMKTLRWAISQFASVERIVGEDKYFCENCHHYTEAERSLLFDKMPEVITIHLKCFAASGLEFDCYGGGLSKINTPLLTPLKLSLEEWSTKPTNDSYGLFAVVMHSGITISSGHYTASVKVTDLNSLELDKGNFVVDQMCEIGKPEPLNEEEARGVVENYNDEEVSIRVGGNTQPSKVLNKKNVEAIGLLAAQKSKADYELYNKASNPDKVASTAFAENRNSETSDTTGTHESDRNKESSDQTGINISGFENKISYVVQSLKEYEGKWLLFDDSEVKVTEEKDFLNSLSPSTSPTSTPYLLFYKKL
Sequence (Q8TAF3 whole entry partner): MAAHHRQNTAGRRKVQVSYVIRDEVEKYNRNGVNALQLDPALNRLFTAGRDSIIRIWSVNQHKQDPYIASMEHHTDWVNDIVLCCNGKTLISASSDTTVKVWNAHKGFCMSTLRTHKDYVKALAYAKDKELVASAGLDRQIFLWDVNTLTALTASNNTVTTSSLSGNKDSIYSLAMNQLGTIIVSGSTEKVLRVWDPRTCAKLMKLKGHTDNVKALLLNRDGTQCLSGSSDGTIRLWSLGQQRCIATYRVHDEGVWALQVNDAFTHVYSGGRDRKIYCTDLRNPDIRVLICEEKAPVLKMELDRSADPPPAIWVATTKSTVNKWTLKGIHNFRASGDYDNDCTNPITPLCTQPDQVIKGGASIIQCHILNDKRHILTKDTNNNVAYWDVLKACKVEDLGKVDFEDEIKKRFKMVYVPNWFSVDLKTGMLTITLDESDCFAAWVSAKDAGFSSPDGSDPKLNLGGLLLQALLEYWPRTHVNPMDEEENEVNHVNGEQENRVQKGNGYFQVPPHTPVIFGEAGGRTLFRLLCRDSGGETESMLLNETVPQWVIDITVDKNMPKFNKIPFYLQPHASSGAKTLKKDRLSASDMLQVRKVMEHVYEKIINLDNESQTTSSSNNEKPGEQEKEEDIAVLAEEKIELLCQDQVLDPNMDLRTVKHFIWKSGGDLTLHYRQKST
Assay: Ubiquitin-Rhodamine 110 assay for USP1 activity
Conditions: USP1/UAF1 25 pM, Ub-Rh110 25 nM, 30 min preincubation
Experimental: Example 53: Ubitquin-Rhodamine 110 Assay for USP1 Activity […] Nanoliter quantities of either an 8-point or 10-point, 3-fold serial dilution in DMSO was pre-dispensed into assay plates (Perkin Elmer, ProxiPlate-384 F Plus, #6008269) for a final test concentration range of either 25 μM to 11 nM or 25 μM to 1.3 nM, respectively. […] Fluorescence was read on the Envision (Excitation at 485 nm and Emission at 535 nm; Perkin Elmer) or on the PheraSTAR (Excitation at 485 nm and Emission at 535 nm; BMG Labtech). […]
Outcome Measure: IC50

Consider the reported IC50 for these compounds:
Compound: CC(C)c1ccccc1-c1ncc2c(n1)n(Cc1ccc(-c3nc(N4CCOCC4)n(C)n3)cc1)c(=O)n2C
IC50: 50 to 200 nM
//
Compound: Cc1ncccc1-c1ncc2c(n1)n(Cc1ccc(-c3nc(C(F)(F)F)cn3C)cc1)c(=O)n2C
IC50: 200 to 2000 nM
//
Compound: CC(C)c1ccccc1-c1ncc2c(n1)n(Cc1cccc(OCC3CC3)c1)c(=O)n2C
IC50: > 2000 nM
//
Compound: O=c1[nH]c2cnc(-c3cccc4c3OC(F)(F)O4)nc2n1Cc1ccc(-n2cccn2)cc1
IC50: 50 to 200 nM
//
Compound: CC(C)c1ccccc1-c1ncc2[nH]c(=O)n(Cc3ccc(-n4cc(-c5ccccc5)nn4)cc3)c2n1
IC50: 200 to 2000 nM
//
Compound: CC(C)NC(=O)N1CCC(Cn2c(=O)n(C)c3cnc(-c4ccccc4C(C)C)nc32)CC1
IC50: > 2000 nM
//
Compound: Cn1cc(C(F)(F)F)nc1-c1ccc(Cn2c(=O)[nH]c3cnc(-c4cccnc4NC4CCC4)nc32)cc1
IC50: 50 to 200 nM
//
Compound: CC(C)c1ccccc1-c1ncc2[nH]c(=O)n([C@@H](C)c3ccc(-n4nccn4)cc3)c2n1
IC50: 200 to 2000 nM
//
Compound: COCCn1ccnc1-c1ccc(Cn2c(=O)n(C)c3cnc(-c4ccccc4C(C)C)nc32)cc1
IC50: < 50 nM
//
Compound: Cc1nc(N2CCC(F)(Cn3c(=O)[nH]c4cnc(-c5ccccc5C(C)C)nc43)CC2)c(C)s1
IC50: < 50 nM

Tell me IC50 reported for COC(C)CCOc1ncccc1-c1ncc2[nH]c(=O)n(Cc3ccc(-c4nc(C(F)(F)F)cn4C)cc3)c2n1 (stereo not drawn)
< 50 nM

Tell me IC50 reported for CCOCCOc1ccc(Cn2c(=O)n(C)c3cnc(-c4ccccc4C(C)C)nc32)cc1
< 50 nM

Tell me IC50 reported for CC(C)c1c(F)cccc1-c1ncc2[nH]c(=O)n(Cc3ccc(-n4nccn4)cc3)c2n1
50 to 200 nM

Tell me IC50 reported for CC(C)Nc1ncccc1-c1ncc2[nH]c(=O)n(Cc3ccc(-c4nc(C(F)(F)F)cn4C)cc3)c2n1
< 50 nM

Tell me IC50 reported for COc1c(F)cccc1-c1ncc2[nH]c(=O)n(Cc3ccc(-n4nccn4)cc3)c2n1
> 2000 nM
